# Assay: protein stability index of a GFP-peptide fusion (GPS, HEK-293T) (PSI 1-6); higher = more stable;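 also: 24-mer peptide tiles fused after GFP, lentivirally expressed, FACS-sorted into six equal bins by GFP/DsRed ratio, decoded by Illumina sequencing, PSI is the read-weighted mean bin number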
# Condition parameters: treatment: MLN4924 1 uM, 8 h; c terminus: a fixed tail appended
Please provide measured protein stability index for the entries that follow.
Answer with a number only.

# lookup: protein stability index of RETNKSRGFAFVTFESPADAKDAA [RBMX] 4.39

# lookup: protein stability index of SLQQQHQADLELIESAHRSRIKVL [FBF1] 3.47

# lookup: protein stability index of AEEGWSPTPKCLRLCFFPFVENGH [CFHR2] 2.12

# lookup: protein stability index of LRTYLARLPWAGQLTKELPLSPAF [PBXIP1] 2.16

# lookup: protein stability index of QSSADGSQPPKKKPKTTNIELQGV [RBBP5] 5.26

# lookup: protein stability index of VKWMVVFAIGVCTGLVGLFVDFFV [CLCN6] 2.42

# lookup: protein stability index of GRPIKPPKKDLEDGEVPQHAGKKG [BRD3] 5.55

---

Please provide measured protein stability index for the entries that follow.
# Assay: protein stability index of a GFP-peptide fusion (GPS, HEK-293T) (PSI 1-6); higher = more stable
# Condition parameters: treatment: DMSO; c terminus: a fixed tail appended
Answer with a number only.

# lookup: protein stability index of FCASTRLPPTPLLLFPEEEATNGR [AUP1] 3.03

# lookup: protein stability index of MGIVNLNIHMNFTHICRSHNSINQ [SLC2A12] 2.73

# lookup: protein stability index of SSGRSCRNERSIQEKLQVLMAEGL [SMG5] 2.64

# lookup: protein stability index of MAALNSQTAVQFQQYAAQQYPGNY [ACBD3] 3.09

# lookup: protein stability index of IVYATEKKQTKVEFPEARIFEETL [KCTD13] 3

# lookup: protein stability index of VEPPGPGDTVVQGDLQETTVVTGL [PBXIP1] 5.31

# lookup: protein stability index of GEEDFSLSATIGSILRELDTSMDG [SERTAD3] 3.75

# lookup: protein stability index of VLTLPFDVVKTQRQVALGAMEAVR [SLC25A39] 2.51

# lookup: protein stability index of KGSLPQPPITEVESQVFSEKLATD [ZNF232] 5.44

# lookup: protein stability index of RPSRSGAQQLEEEGPMEEEEAQPM [EID1] 5.66

# lookup: protein stability index of LLHLDLKPANILLDAHYHVKISDF [RIPK4] 2.45

# lookup: protein stability index of LRGLCANTVLRFLDLKGNNLRAAG [LRRC45] 2.3

# lookup: protein stability index of TIYGLHALEQGGLRAATMSAVEAA [PYCR3] 2.85

---

# Assay: protein stability index of a GFP-peptide fusion (GPS, HEK-293T) (PSI 1-6); higher = more stable
# Condition parameters: treatment: DMSO; c terminus: a fixed tail appended
Please provide measured protein stability index for the entries that follow.
Answer with a number only.

# lookup: protein stability index of ENVDEASAAPGHPQDGSYPRQADH [KCNA1] 5.55

# lookup: protein stability index of SSFIKTEPSSPASLTDSVNHHSPG [ESRRG] 4.79

# lookup: protein stability index of FPKKLAFAYLEDLHSEFDEQHGKK [SEC22B] 2.89

# lookup: protein stability index of LPAVKVFLDWLRTNPDLIIVCAQS [SMG5] 2.27

# lookup: protein stability index of EAEAADSGAVGARRFLLCLYLVGF [MFSD9] 2.79

# lookup: protein stability index of ANLKQVKKEDTEKERDLRDVGDWR [TNNI2] 5.33

# lookup: protein stability index of FWLGNEALHSLTQAGDYSMRVDLR [TNXB] 2.19

# lookup: protein stability index of RPKDTVMCYRVRWEEAAPGRAVEH [MYORG] 2.85

# lookup: protein stability index of PESETSILLSWTPPRSDTIANYEL [PTPRD] 3.09

# lookup: protein stability index of DRGIKGDITPLMAAANGGHVKIVK [ANKRD17] 4.42

# lookup: protein stability index of SIAFRLRLASFDSSGKLICSRTTG [GMCL1] 2.52

# lookup: protein stability index of GGMSHLHTFRATFQEPLYPALRLW [TRIM14] 2.21

# lookup: protein stability index of VTQPCGDCGTIQENWVCLSCYQVY [HDAC6] 2.89

# lookup: protein stability index of RDNAELENLIRERSQQQEPLLCPS [KRT33B] 4.98

# lookup: protein stability index of VCVFLSHGEGNHIYAYDAKIEIQT [CASP6] 3.11

# lookup: protein stability index of YPVGWPPVQELPPSLRAPPPGGWP [ZMAT5] 2.39

# lookup: protein stability index of SSRVPVGGGPEATLSISDVRTLSE [ZBTB22] 4.49

# lookup: protein stability index of SDVVEYAKEKLESFIKNSDSFDKF [PCMTD1] 3.7

# lookup: protein stability index of RRSVRKNHMYSCRFSRQCVVDKDK [HNF4A] 3.02

# lookup: protein stability index of SHHLAVYNSPQFKKTMSTFHNLVS [FBXO39] 2.25

# lookup: protein stability index of EGFLFVFGGQDENKQTLSSGEKYD [GAN] 3.11

# lookup: protein stability index of GDQDPLSKIPFKILSGHEHAVSTC [WDR88] 3.31

# lookup: protein stability index of GYNWCHDRNVVTIFSAPNYCYRCG [PPP2CA] 2.4

# lookup: protein stability index of YIFRVANHQKDLFRRTDGRCLIWG [DHCR7] 2.77

# lookup: protein stability index of HRKAVHLRTRGRTRGWVQTLARMS [C6orf223] 2.57

# lookup: protein stability index of HFDLRDDDDAEEEGPKRELGVRRP [TCF25] 5.32

# lookup: protein stability index of VASGSTPAPALCCAPYDSRLLGSA [IRX6] 2.64

# lookup: protein stability index of GDVMHLSQSPSVSQLSVLSLSGVM [PRAME] 2.43

# lookup: protein stability index of FLVVREPPRGAVERHSDLPPLNPT [SPNS1] 2.85

# lookup: protein stability index of INGSEGDGAEIAEKFVFFIGSKNG [DYNC2LI1] 2.99

# lookup: protein stability index of ENIAWVKSYNICFELEDSNEIFTQ [PDS5B] 2.46

# lookup: protein stability index of AATRGGSHLQAAAQTPPRPGPPSA [SCNN1D] 4.93

# lookup: protein stability index of LRREKPSEEMVKMVLSRPCHPDDQ [INTS3] 4.61

# lookup: protein stability index of SHKERFDPSGKGKGKAGRVDLVDE [TPPP] 5.04

# lookup: protein stability index of DNPLDRPLVGQDEFFLEQTKKKGV [NOP53] 5.25

# lookup: protein stability index of WEIAKAEVEKRGINGSEGDGAEIA [DYNC2LI1] 5.26

# lookup: protein stability index of EFIQEIRRQLEACQRERAFSVKFE [OAS1] 2.29

# lookup: protein stability index of APTMLHNSSGDFSQAHSTLKLANH [TRAF3IP2] 4.02

# lookup: protein stability index of ADDFRTKYEHELALRQTVEADVNG [KRT16] 5.17

# lookup: protein stability index of NISCFFRLVDRDSVWGYDLGLRSL [MYORG] 3.01

# lookup: protein stability index of ETIEGAPPLWAASAAGHLKVVQSL [FEM1C] 3.11

# lookup: protein stability index of SLVTVGKHLTARVLCLIVLPLALY [POMT2] 2.63

# lookup: protein stability index of GVIVANMTEWKHQRITKQLEKWMQ [GLT8D2] 2.18

# lookup: protein stability index of MVDIIFHYPFLGAMGDHSKKKPGT [ISL2] 2.34

# lookup: protein stability index of WGDCSRTCGGGVQFSSRDCTRPVP [ADAMTS4] 2.9

# lookup: protein stability index of MLRSGLSGLGSCLPGSYLSSECHT [KRT36] 2.42

# lookup: protein stability index of PFTVSPNTHVSQVFNLFRTMGLRH [CLCN6] 2.39

# lookup: protein stability index of IAIVSVMVILISIVIFCLETLPEL [KCNA1] 2.39

# lookup: protein stability index of DLAYQLQVAKTKQQIEEQRVQVQV [FLOT1] 3.4

# lookup: protein stability index of SQFLKHQQTHNIEKAHECTDCGKA [ZNF649] 4.88

# lookup: protein stability index of PETHIFTAPEEVPKVSDQALVSAH [DMRTC1] 4.96

# lookup: protein stability index of SLLGLLSFPRNNISYLVLSMISMG [JAGN1] 3.11

# lookup: protein stability index of AALTRMRAESTANAGQSDNRSLAE [ANKRD17] 4.79

Origin of the recorded values: the supplement of paper PMC10567573
